Molecular target: Human M4 (Homo sapiens, UniProt P08173)
Construct: expressed in transfected cells
Sequence (P08173 whole entry): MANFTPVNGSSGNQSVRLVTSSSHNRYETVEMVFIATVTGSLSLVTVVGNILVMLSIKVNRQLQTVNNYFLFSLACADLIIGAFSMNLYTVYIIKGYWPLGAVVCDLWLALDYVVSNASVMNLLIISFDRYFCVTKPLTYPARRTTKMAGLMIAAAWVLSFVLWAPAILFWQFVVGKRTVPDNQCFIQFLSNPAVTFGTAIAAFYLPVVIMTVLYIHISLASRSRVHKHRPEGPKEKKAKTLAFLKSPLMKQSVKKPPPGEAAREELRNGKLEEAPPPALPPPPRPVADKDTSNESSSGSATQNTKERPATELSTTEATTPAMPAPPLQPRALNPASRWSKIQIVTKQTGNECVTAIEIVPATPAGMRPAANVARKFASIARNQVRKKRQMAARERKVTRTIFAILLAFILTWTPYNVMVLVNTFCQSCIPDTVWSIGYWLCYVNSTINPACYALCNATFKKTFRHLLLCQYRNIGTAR
Assay: mAChR M4 cell-based functional assay (calcium flux, potentiation of EC20 acetylcholine response), hM4-Gqi5 CHO-K1 cells
Details: Table 3; potentiation of EC20 acetylcholine response, calcium flux, CHO-K1 cells; read-out: Human M4 EC50
The threshold is 1000 nM. Values of EC50 beneath it are tagged true (1); values meeting or exceeding it are tagged false (0).

COMPOUND: COc1ccc(C(=O)Nc2cnc3c(c2)CN(c2nn4cnnc4c(C)c2C)CC3)cn1 [Compound 155]
ASSIGNED_LABEL: true (1)

COMPOUND: Cc1c(N2CCc3ncc(-c4ccc(N5CCCC(F)C5)nc4)cc3C2)nn2cnnc2c1C (centres unmarked) [Compound 216]
ASSIGNED_LABEL: true (1)

COMPOUND: Cc1cc2nncn2nc1N1CCc2ncc(N3CCCn4nccc43)cc2C1 [Compound 206]
ASSIGNED_LABEL: true (1)

COMPOUND: Cc1cnc2c(c1)CN(c1nn3cc(C(=O)NC4CC4)nc3cc1C)CC2 [Compound 168]
ASSIGNED_LABEL: false (0)

COMPOUND: Cc1c(N2CCc3ncc(Nc4ccnn4C)cc3C2)nn2c(C(F)(F)F)nnc2c1C [Compound 201]
ASSIGNED_LABEL: true (1)

COMPOUND: CCC(C)(O)c1cnc2c(c1)CN(c1nn3cnnc3c(C)c1C)CC2 (centres unmarked) [Compound 165]
ASSIGNED_LABEL: false (0)

COMPOUND: Cc1cnc2c(c1)CN(c1nn3cc(C(=O)N4CCN(C)CC4)nc3cc1C)CC2 [Compound 169]
ASSIGNED_LABEL: false (0)

COMPOUND: COc1ccc2c(c1)CCCN2c1cnc2c(c1)CN(c1nn3c(C(F)(F)F)nnc3c(C)c1C)CC2 [Compound 229]
ASSIGNED_LABEL: true (1)

COMPOUND: Cc1c(N2CCc3ncc(-c4ccc(N5CCC(F)(F)CC5)nc4)cc3C2)nn2cnnc2c1C [Compound 215]
ASSIGNED_LABEL: true (1)

COMPOUND: Cc1c(N2CCc3ncc(N4CCOCC4)cc3C2)nn2c(C(F)(F)F)nnc2c1C [Compound 271]
ASSIGNED_LABEL: true (1)

COMPOUND: Cc1c(N2CCc3nnc(Cl)cc3C2)nn2c(C(F)(F)F)nnc2c1C [Compound 283]
ASSIGNED_LABEL: false (0)

COMPOUND: Cc1cc2nnc(C(F)(F)F)n2nc1N1CCc2ncc(Oc3ccc(F)cc3F)cc2C1 [Compound 296]
ASSIGNED_LABEL: false (0)

COMPOUND: Cc1c(N2CCc3ncc(C(C)C)cc3C2)nn2cnnc2c1C [Compound 218]
ASSIGNED_LABEL: true (1)

COMPOUND: Cc1c(N2CCc3ncc(-c4cccnc4F)cc3C2)nn2cnnc2c1C [Compound 183]
ASSIGNED_LABEL: true (1)

COMPOUND: Cc1cc2nncn2nc1N1CCc2ncc(Nc3csc4ncccc34)cc2C1 [Compound 205]
ASSIGNED_LABEL: true (1)

COMPOUND: Cc1c(N2CCc3ncc(Oc4cc(F)ccc4F)cc3C2)nn2c(C(F)(F)F)nnc2c1C [Compound 301]
ASSIGNED_LABEL: true (1)

Recorded values, source patent US20250002507A1.
